System: Candida albicans
CONDITION SET: Concentration 32 ug.mL-1; ASSAY_TEST Inhibition of Fungal Growth; detection method Absorption (OD530)
Description: Antifungal activity against Candida albicans ATCC 90028 (CO-ADD:FG_001); MIC in YNB media using NBS plates, by OD630
Measured potencies and affinities stand elsewhere.

>  <COMPOUND>
Cc1ccc(NC(=O)Cn2nc3ccc(SC(C)C)nn3c2=O)c(C)c1

>  <Inhibition (%)>
2.8

$$$$
>  <COMPOUND>
CCc1ccc(NC(=O)Cn2nc3ccc(SC(C)(C)C)nn3c2=O)cc1

>  <Inhibition (%)>
4.19

$$$$
>  <COMPOUND>
COc1ccc(NC(=O)c2ccc3nn(CC(=O)Nc4cccc(SC)c4)c(=O)n3c2)cc1

>  <Inhibition (%)>
7.63

$$$$
>  <COMPOUND>
COc1cccc(CN(c2ccccc2)S(=O)(=O)c2ccc3nncn3c2)c1

>  <Inhibition (%)>
2.69

$$$$
>  <COMPOUND>
Cc1cc2nn(CC(=O)NCc3ccc4c(c3)OCO4)c(=O)n2c(Nc2ccccc2C)n1

>  <Inhibition (%)>
2.64

$$$$
>  <COMPOUND>
Cc1cc2nn(CC(=O)Nc3cc(F)ccc3C)c(=O)n2c(Nc2ccc(F)cc2)n1

>  <Inhibition (%)>
0.87

$$$$
>  <COMPOUND>
COc1ccccc1-n1ccn2c(SCC#N)nnc2c1=O

>  <Inhibition (%)>
4.95

$$$$
>  <COMPOUND>
COc1ccc(CNC(=O)Cn2nc3c(Sc4ccc(C)cc4C)nccn3c2=O)cc1

>  <Inhibition (%)>
-0.37

$$$$
>  <COMPOUND>
Cc1ccc(C)c(NC(=O)Cn2nc3c4cc(-c5ccc(C)c(C)c5)nn4ccn3c2=O)c1

>  <Inhibition (%)>
-1.76

$$$$
>  <COMPOUND>
COc1cccc(CNC(=O)Cn2nc3c4cc(-c5cc(C)ccc5C)nn4ccn3c2=O)c1OC

>  <Inhibition (%)>
-1.47

$$$$
>  <COMPOUND>
CSc1cccc(NC(=O)Cn2nc3c(Oc4cc(C)cc(C)c4)nccn3c2=O)c1

>  <Inhibition (%)>
2.48

$$$$
>  <COMPOUND>
CCC(C)NC(=O)Cn1nc2n(Cc3ccco3)c(=O)c3sccc3n2c1=O (stereo not given)

>  <Inhibition (%)>
-0.07

$$$$
>  <COMPOUND>
CCC(C)NC(=O)Cn1nc2n(CC(C)C)c(=O)c3ccc(C(=O)NC4CCCCC4)cc3n2c1=O (stereo not given)

>  <Inhibition (%)>
-1.97

$$$$
>  <COMPOUND>
COc1ccc(CN(c2cc(C)cc(C)c2)S(=O)(=O)c2cccn3c(C)nnc23)cc1

>  <Inhibition (%)>
2.31

$$$$
>  <COMPOUND>
O=S(=O)(c1ccc2nncn2c1)N(Cc1cc(F)cc(F)c1)c1cc(F)cc(F)c1

>  <Inhibition (%)>
0.05

$$$$
>  <COMPOUND>
Cc1ccc(Sc2nccn3c(=O)n(CC(=O)N4CCN(c5ccccc5F)CC4)nc23)c(C)c1

>  <Inhibition (%)>
0.22

$$$$
>  <COMPOUND>
O=C(CCc1nnc2c3cc(-c4ccc(F)cc4)nn3ccn12)N1CCC(Cc2ccccc2)CC1

>  <Inhibition (%)>
-1.12

$$$$
>  <COMPOUND>
C=Cc1ccc(CN(c2cccc(F)c2)S(=O)(=O)c2ccc3nnc(C)n3c2)cc1

>  <Inhibition (%)>
1.51

$$$$
>  <COMPOUND>
O=C(CSc1nnc2c(=O)n(-c3ccc(Br)cc3)ccn12)Nc1cccc(Cl)c1

>  <Inhibition (%)>
6.02

$$$$
>  <COMPOUND>
Cc1cc(C)cc(N(Cc2cccc(Cl)c2)S(=O)(=O)c2cccn3cnnc23)c1

>  <Inhibition (%)>
1.12

$$$$
